Each recorded value in this set is attributed to PubChem BioAssay (NCI).

molecules and their reported TGI
Tested on: HT29 colon
Assay: NCI tumour cell line growth inhibition, 48 h
Just the number please, in µM, no unit attached.

{"line-notation": "CN([N-]C(=O)CC(=O)[N-]N(C)C(=S)c1ccccc1)C(=S)c1ccccc1.[Cu+2]", "measurement": 0.0275}

(Q) Fill: TGI (HT29 colon) for this molecule "C=C(C)[C@@H]1CC[C@]2(C)[C@H](CC=C3[C@@H]4CC(C)(C)CC[C@]4(C(=O)OC)CC[C@]32C)[C@@]1(C)CC/C(N)=N/O"
(A) 5.11

(Q) Please indicate recorded TGI of "CC(=O)[CH-]C(=O)c1ccccc1.CC(=O)[CH-]C(=O)c1ccccc1.[O-]c1ccc(O)cc1.[O-]c1ccc(O)cc1.[Ti+4]" measured with HT29 colon.
(A) 59.7

----------
Tested on: SK-MEL-28 melanoma
Experiment: NCI tumour cell line growth inhibition, 48 h
Reported TGI values for a set of compounds

Answered examples (4):
{"compound": "COc1ccc(Oc2nc3cc(C(F)(F)F)ccc3nc2C(C)C)cc1", "TGI": "> 100 µM"}
{"compound": "CC(C)(C)OC(=O)N(CCCn1c2c(c3ccccc3c1=O)C(=O)c1ccccc1-2)CCN(CCCn1c2c(c3ccccc3c1=O)C(=O)c1ccccc1-2)C(=O)OC(C)(C)C", "TGI": "> 50 µM"}
{"compound": "COC(=O)/C=C\\C1C(C(=O)OC)C2(C(=O)OC)CCC1(C(=O)OC)N2 (centres undefined)", "TGI": "26.4 µM"}
{"compound": "CC(=O)OCC1OC(Sc2nc(-c3ccc(C)cc3)c(C#N)c(=O)n2C2OC(COC(C)=O)C(OC(C)=O)C(OC(C)=O)C2OC(C)=O)C(OC(C)=O)C(OC(C)=O)C1OC(C)=O (centres undefined)", "TGI": "> 100 µM"}

(Q) Report the value of TGI obtained on SK-MEL-28 melanoma for "O=C(O/N=C1/CCC/C1=C\c1ccccc1)c1ccc(Cl)cc1" .
(A) > 100 µM

(Q) Give TGI; test system SK-MEL-28 melanoma; compound "C[C@]1(O)CC(=O)[C@]2(O)C3=C(C=C[C@]2(O)C1)C(=O)c1c(O)cccc1C3=O"
(A) 4.25 µM

(Q) Would you please give the reported TGI of "Clc1ccc(OCc2nnc(CCCCCCCCc3nnc(COc4ccc(Cl)cc4)o3)o2)cc1" with SK-MEL-28 melanoma?
(A) > 100 µM

(Q) # assay system SK-MEL-28 melanoma: give TGI of "c1ccc2c(c1)[Se]c1ccccc1[Se]2"
(A) > 100 µM

(Q) # return TGI of CCOC(=O)C1=C(C)N2CCCOC2(C)C(C(=O)OC)C1c1cccc([N+](=O)[O-])c1 (centres undefined) (system: SK-MEL-28 melanoma)
(A) > 100 µM

(Q) Please report the measured TGI for CC(=O)C1CC2(c3ccccc3)C(=O)c3ccccc3N2O1 (centres undefined) tested on SK-MEL-28 melanoma.
(A) > 100 µM

(Q) Given "COc1cc(C)c(N(C)C(=O)CN(C)C)cc1Nc1nc(Nc2cccc(F)c2C(N)=O)c2cc[nH]c2n1" , report its TGI on SK-MEL-28 melanoma.
(A) > 25 µM

----------
System: ACHN renal
Experiment: NCI tumour cell line growth inhibition, 48 h
parameter-measured: GI50

{"compound": "CC(C)(C)OC(=O)N(CCCn1c2c(c3ccccc3c1=O)C(=O)c1ccccc1-2)CCN(CCCn1c2c(c3ccccc3c1=O)C(=O)c1ccccc1-2)C(=O)OC(C)(C)C", "GI50": "11.2 µM"}

(Q) Tell me measured GI50 for "C=C(C)[C@@H]1CC[C@]2(c3ncc(C)o3)CC[C@]3(C)[C@H](CC[C@@H]4[C@@](C)(CCC#N)[C@H](C(=C)C)CC[C@]43C)[C@@H]12" please.
(A) 4.65 µM
